Experiment: C-7 plasma pharmacokinetics after single oral administration
Format: in vivo, human
Settings: human, plasma, po, 100 mg, plasma; single oral 100 mg, Cohort II, n = 4; geometric mean [% CV geo mean]; read-out: AUC0-24 hr
experimental endpoint: AUC(0-t) (ng·h/mL)
Give the value in ng·h/mL but do not write ng·h/mL after it.

For the compound CC(C)c1cc2[nH]c(=O)n(NS(C)(=O)=O)c(=O)c2cc1-c1ccnn1C , what AUC(0-t) is on record?
16900

---

Test: C-7 plasma pharmacokinetics after single oral administration
Assay type: in vivo, human
Settings: human, plasma, po, 50 mg, plasma; single oral 50 mg, Cohort I, n = 6; geometric mean [% CV geo mean]; read-out: AUC0-6 hr
experimental endpoint: AUC(0-t)

For the compound CC(C)c1cc2[nH]c(=O)n(NS(C)(=O)=O)c(=O)c2cc1-c1ccnn1C , what AUC(0-t) is on record?
6790 ng·h/mL

FYI, the data here is from patent US20140163050A1.
